These data points were gathered from patent US5959123A.

Quick record: IC50, cathepsin B (Rattus norvegicus).

{"columns": ["Compound", "Test Result"],
 "data": [
  ["O=C(N[C@@H](Cc1ccc2ccccc2c1)C(=O)N[C@@H]1C(=O)N[C@@H]1Oc1ccc2ccccc2c1)OCc1ccccc1 [Example 13B]", "0.0715 µM"],
  ["COc1ccc(C[C@H](NC(=O)CCc2ccccc2)C(=O)N[C@@H]2C(=O)N[C@H]2Oc2ccccc2)cc1OC", "48 µM"],
  ["CC(C)(C)C[C@H](NC(=O)CCc1ccccc1)C(=O)N[C@@H]1C(=O)N[C@H]1Oc1ccccc1", "45 µM"],
  ["O=C(N[C@@H](Cc1ccc2ccccc2c1)C(=O)N[C@@H]1C(=O)N[C@H]1Oc1cccc(N2CCOCC2)c1)OCc1ccccc1 [Example 14A]", "1.7 µM"],
  ["O=C(N[C@@H](Cc1ccc2ccccc2c1)C(=O)N[C@@H]1C(=O)N[C@@H]1Oc1cccc(N2CCOCC2)c1)OCc1ccccc1 [Example 14B]", "0.34 µM"],
  ["CC(C)(C)OC[C@H](NC(=O)OCc1ccccc1)C(=O)N[C@@H]1C(=O)N[C@@H]1Oc1ccccc1", "11 µM"]
]}

Now consider a different compound.
Form field IC50, entry CC(=O)O[C@@H]1NC(=O)[C@H]1NC(=O)[C@H](Cc1cccnc1)NC(=O)OCc1ccccc1 : > 50 µM

* * *

- Measurement Target: cathepsin B (Rattus norvegicus)
- Sequence (P00787 80-333 limits assumed): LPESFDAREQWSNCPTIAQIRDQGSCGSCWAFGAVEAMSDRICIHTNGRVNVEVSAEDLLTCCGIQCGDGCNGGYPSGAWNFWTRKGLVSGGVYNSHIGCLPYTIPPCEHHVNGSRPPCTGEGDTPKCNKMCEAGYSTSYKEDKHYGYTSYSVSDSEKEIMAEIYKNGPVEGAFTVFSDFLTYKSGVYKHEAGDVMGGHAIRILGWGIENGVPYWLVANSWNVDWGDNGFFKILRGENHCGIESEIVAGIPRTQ
Quantity Kind: IC50 (µM)
Quick note: give the figure in µM, leave out the unit.

{"columns": ["Compound", "Measurement Target", "IC50 (µM)"],
 "data": [
  ["O=C(CCc1ccccc1)N[C@@H](Cc1ccc2c(c1)OCCO2)C(=O)N[C@@H]1C(=O)N[C@H]1Oc1ccccc1 [Example 31]", "cathepsin B (Rattus norvegicus)", 9.7]
]}

// next item, IC50 requested
Reported IC50 of CC(=O)O[C@@H]1NC(=O)[C@H]1NC(=O)[C@H](Cc1ccc2ccccc2c1)NC(=O)NCc1ccccc1 [Example 21] : 2.2

* * *

- Measurement Target: cathepsin L (Rattus norvegicus, UniProt P07154)
- Sequence (P07154 114-334): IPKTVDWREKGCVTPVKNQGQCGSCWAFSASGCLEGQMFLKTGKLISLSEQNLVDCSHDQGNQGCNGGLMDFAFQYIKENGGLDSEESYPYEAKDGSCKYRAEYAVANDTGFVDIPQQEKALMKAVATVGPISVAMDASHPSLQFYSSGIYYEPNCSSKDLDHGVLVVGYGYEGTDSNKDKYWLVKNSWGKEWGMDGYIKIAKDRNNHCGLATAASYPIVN
Quantity Kind: IC50 (nM)
Record the value in nM, omitting the unit from your answer.

{"columns": ["Molecule", "Unit String", "IC50"],
 "data": [
  ["CC(=O)O[C@@H]1NC(=O)[C@H]1NC(=O)[C@H](CCCN=C(N)N[N+](=O)[O-])NC(=O)CCc1ccccc1", "nM", 16.8],
  ["O=C(N[C@@H](Cc1ccc2ccccc2c1)C(=O)N[C@@H]1C(=O)N[C@H]1Oc1ccc2ccccc2c1)OCc1ccccc1 [Example 13A]", "nM", 2.9],
  ["COc1ccc(C[C@H](NC(=O)OCc2ccccc2)C(=O)N[C@@H]2C(=O)N[C@H]2OC(C)=O)cc1", "nM", 57],
  ["O=C(N[C@@H](Cc1ccc2ccccc2c1)C(=O)N[C@@H]1C(=O)N[C@@H]1Oc1cccc(N2CCOCC2)c1)OCc1ccccc1 [Example 14B]", "nM", 0.5]
]}

Test item O=C(N[C@@H](Cc1ccc2ccccc2c1)C(=O)N[C@@H]1C(=O)N[C@@H]1Oc1ccc2ccccc2c1)OCc1ccccc1 [Example 13B] ; cathepsin L (Rattus norvegicus, UniProt P07154); reported IC50 was 0.11

Record O=C(CCc1ccccc1)NC(Cc1ccc2ccccc2c1)C(=O)NC1C(=O)NC1SCCO (centres unmarked) ; system cathepsin L (Rattus norvegicus, UniProt P07154); IC50 = 400

Form field, IC50 with cathepsin L (Rattus norvegicus, UniProt P07154), item CC(=O)O[C@@H]1NC(=O)[C@H]1NC(=O)[C@H](Cc1ccccn1)NC(=O)OCc1ccccc1 : 12100

Tested on cathepsin L (Rattus norvegicus, UniProt P07154): N[C@@H](Cc1ccc(OC2NC(=O)[C@H]2NC(=O)[C@H](Cc2ccc3ccccc3c2)NC(=O)NCc2ccccc2)cc1)C(=O)O (some centres unmarked) . Observed IC50: 13

Form: item Cc1cccc(O[C@@H]2NC(=O)[C@H]2NC(=O)[C@H](Cc2ccc3ccccc3c2)NC(=O)OCc2ccccc2)c1 [Example 12A] ; test system cathepsin L (Rattus norvegicus, UniProt P07154); IC50: 3

Short answer on cathepsin L (Rattus norvegicus, UniProt P07154) for O=C(N[C@@H](Cc1ccc2ccccc2c1)C(=O)N[C@@H]1C(=O)N[C@H]1Oc1cccc(N2CCOCC2)c1)OCc1ccccc1 [Example 14A] , IC50: 2.7

Per the reported cathepsin L (Rattus norvegicus, UniProt P07154) data, CC(=O)O[C@@H]1NC(=O)[C@H]1NC(=O)[C@H](Cc1ccc2ccccc2c1)NS(=O)(=O)/C=C/c1ccccc1 has IC50 of 79

Measured IC50 (cathepsin L (Rattus norvegicus, UniProt P07154)), entry CC(=O)O[C@@H]1NC(=O)[C@H]1NC(=O)C(Cc1cccs1)NC(=O)OCc1ccccc1 (mixture of isomers) : 2320
